List of EC50 values.
Molecular target: T1, human GPRC5D (G protein-coupled receptor class C group 5 member D), on cells (human, UniProt Q9NZD1 1-345)
T1 construct: whole, on cells; also called hGPRC5D
T1 sequence (Q9NZD1 whole entry): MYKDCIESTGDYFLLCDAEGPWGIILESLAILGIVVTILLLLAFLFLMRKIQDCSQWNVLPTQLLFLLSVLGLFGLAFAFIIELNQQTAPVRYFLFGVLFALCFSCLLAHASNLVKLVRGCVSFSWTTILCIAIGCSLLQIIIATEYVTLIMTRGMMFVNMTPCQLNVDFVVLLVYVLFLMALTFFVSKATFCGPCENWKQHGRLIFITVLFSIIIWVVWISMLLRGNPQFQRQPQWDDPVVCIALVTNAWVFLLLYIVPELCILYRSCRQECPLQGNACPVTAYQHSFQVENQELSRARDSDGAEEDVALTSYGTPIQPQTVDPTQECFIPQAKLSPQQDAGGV
Experiment: FACS on MOLP8 multiple myeloma cells
observation type: EC50 (µg/mL)

binder="humanized antibody 26D1 (hz) (antibody, V domains shown) VH: QVQLVQSGAEVKKPGASVKVSCKASGYTFTSYTIQWIKQAPGQGLEWIGYIIPSSGYTNYNQKFKDKATLTADKSSNTAYMELSSLTSEDTAVYYCANNYGNWGFTYWGQGTTVTVSS VL: DIQMTQSPSTLSASVGDRVTITCKASQNVGSAVTWYQQKPGKAPRLLIYSASNRYTGVPDRFSGSGSGTEFTLTISSLQPDDFATYFCQQYSNYPLTFGQGTRLEIKR" quantitative_result=0.964
binder="humanized antibody 24F5 (hz) (antibody, V domains shown) VH: QVQLVQSGAEVKKPGASVKVSCKASGYTFPYYVMHWVRQAPGQGLEWIGYINPYNDGTKYNEKFKGRATLTSDKSTSTAYMELSSLRSEDTAVYYCARGGVRRYFDYWGQGTTVTVSS VL: DIQMTQSPSTLSASVGDRVTITCRASQDIGSNLNWLQQKPGGTIKRLIYATSSLDSGVPSRFSGSRSGSEYTLTISSLQPDDFATYYCLQYATFPYTFGQGTRLEIKR" quantitative_result=0.581
binder="humanized antibody 9D7 (hz) (antibody, V domains shown) VH: QVQLQESGPGLVKPSETLSLTCTVSGYSITSDYAWNWIRQPPGKGLEWMGYISYSGSATYSPSLKSRITISRDTSKNQFSLKLSSVTAADTAVYYCARGGIAGRGRWGAMDYWGQGTTVTVSS VL: DIQMTQSPSSLSASVGDRVTITCKASQNVGTNVAWYQQKPGQSPKALIYSASYRDSGVPDRFSGSGSGTDFTLTISSLQPEDFATYYCQQYKSYPLTFGQGTRLEIKR" quantitative_result=0.313
binder="humanized antibody 6E97 (hz) (antibody, V domains shown) VH: QVQLVQSGAEVKKPGASVKVSCKASGYTFPYYVIHWVRQAPGQGLEWIGYINPYNAGTKYNEKFKGRATLTSDKSTSTAYMELSSLRSEDTAVYYCARGGVRRYFDYWGQGTTVTVSS VL: DIQLTQSPSTLSASVGDRVTITCRASQDIGSNLNWLQQKPGGTIKRLISATSSLDSGVPSRFSGSRSGSEYTLTISSLQPDDFATYYCLQYATFPYTFGQGTRLEIKR" quantitative_result=0.256
